# Target or test system: Sulfotransferase 1E1 (Homo sapiens, UniProt P49888)
# Sequence (P49888 whole entry): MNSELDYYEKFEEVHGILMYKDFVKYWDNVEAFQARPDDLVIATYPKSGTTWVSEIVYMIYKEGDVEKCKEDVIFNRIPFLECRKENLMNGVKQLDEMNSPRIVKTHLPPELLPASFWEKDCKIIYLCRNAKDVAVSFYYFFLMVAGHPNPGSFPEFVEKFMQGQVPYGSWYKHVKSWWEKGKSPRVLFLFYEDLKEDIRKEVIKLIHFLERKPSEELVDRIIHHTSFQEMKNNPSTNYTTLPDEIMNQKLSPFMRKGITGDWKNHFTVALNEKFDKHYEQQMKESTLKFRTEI
# Procedure summary: Inhibition of estrogen sulfotransferase in human liver cytosol incubated for 30 mins in presence of [3H]-estradiol and adenosine -3'-phosphate 5'-phosphosulfate by liquid scintillation counting method
# Type: subcellular
Readout kind: IC50 (µM)
Respond numerically; units are µM and should not be typed.

Measured IC50 of CC1=C(CCc2ccoc2)[C@@]2(C)CCCC(C)(C)[C@@H]2CC1=O : 19.8
